- testProtocol: Long term stability of model analytes in dried oral fluid stored 30 days on alginate or chitosan foam
- Format: physicochemical, human
- particulars: oral fluid on chitosan foam; theoretical 100 ng/ml; stored at 37 C; n = 3
Counter-ions that a name gives are not always drawn.
experimentalEndpoint: Measured concentration at day 30 (ng/mL)
Give the quantity in ng/mL, number only.

[in] Entry under review: CCC(=O)C(CC(C)N(C)C)(c1ccccc1)c1ccccc1 (centres unmarked) [Methadone, Methadone hydrochloride] . Reported Measured concentration at day 30?
[out] 108

[in] Please give the measured Measured concentration at day 30 for this compound: COc1ccc(CC(C)N)cc1 (centres unmarked)
[out] 131

[in] Data request, read-out Measured concentration at day 30, for CN[C@@H](C)Cc1ccccc1
[out] 80

[in] Return reported Measured concentration at day 30; argument: CO[C@@]12CC[C@@]3(C[C@@H]1[C@](C)(O)C(C)(C)C)[C@H]1Cc4ccc(O)c5c4[C@@]3(CCN1CC1CC1)[C@H]2O5.Cl [Buprenorphine, buprenorphine hydrochloride]
[out] 100

[in] Requested read-out: Measured concentration at day 30. Entry: CNC(C)Cc1ccc(OC)cc1 (centres unmarked)
[out] 112

---

- testProtocol: Long term stability of model analytes in dried oral fluid stored 30 days on alginate or chitosan foam
- Format: physicochemical, human
- particulars: oral fluid on alginate foam; theoretical 100 ng/ml; stored at −18 C; n = 3
Counter-ions that a name gives are not always drawn.
Sorting guide: entries reporting Measured concentration at day 30 beneath 100 ng/mL go in the y pile, the rest go in the n pile.

[in] # TODO verify Measured concentration at day 30 < 100 ng/mL strictly for this compound: CO[C@@]12CC[C@@]3(C[C@@H]1[C@](C)(O)C(C)(C)C)[C@H]1Cc4ccc(O)c5c4[C@@]3(CCN1CC1CC1)[C@H]2O5.Cl [Buprenorphine, buprenorphine hydrochloride]
[out] y

[in] Hi there! Is Measured concentration at day 30 for COc1ccc(CC(C)N)cc1 (centres unmarked) [PMA, para-methoxyamphetamine] below 100 ng/mL, do you know?
[out] n

[in] Measured concentration at day 30 under 100 ng/mL? Item: CCC(=O)C(CC(C)N(C)C)(c1ccccc1)c1ccccc1 (centres unmarked) [Methadone, Methadone hydrochloride]
[out] n

[in] Just wondering, is Measured concentration at day 30 of CNC(C)Cc1ccc(OC)cc1 (centres unmarked) [PMMA, para-methoxymethamphetamine] below 100 ng/mL?
[out] n

---

- testProtocol: Long term stability of model analytes in dried oral fluid stored 30 days on alginate or chitosan foam
- Format: physicochemical, human
- particulars: oral fluid on alginate foam; theoretical 500 ng/ml; stored at 4 C; n = 3
Counter-ions that a name gives are not always drawn.
So I've got a bunch of molecules here, and I need their Measured concentration at day 30 values.
Report as a plain number; the unit ng/mL is understood.

[in] Report Measured concentration at day 30 for CN[C@@H](C)Cc1ccccc1 please.
[out] 645

[in] Look at this molecule and give its reported Measured concentration at day 30. CNC(C)Cc1ccc(OC)cc1 (centres unmarked)
[out] 715

[in] For the molecule shown here, COc1ccc(CC(C)N)cc1 (centres unmarked) , give the reported Measured concentration at day 30.
[out] 722

[in] What value of measured Measured concentration at day 30 is listed for CO[C@@]12CC[C@@]3(C[C@@H]1[C@](C)(O)C(C)(C)C)[C@H]1Cc4ccc(O)c5c4[C@@]3(CCN1CC1CC1)[C@H]2O5.Cl [Buprenorphine, buprenorphine hydrochloride] ?
[out] 790

[in] I'd like to know its Measured concentration at day 30. The molecule in question is CCC(=O)C(CC(C)N(C)C)(c1ccccc1)c1ccccc1 (centres unmarked) [Methadone, Methadone hydrochloride]
[out] 636
